- TARGET_ENTITY: wild-type Androgen Receptor (AR-wt) (Homo sapiens (Human), UniProt P10275)
- Sequence (P10275 whole entry): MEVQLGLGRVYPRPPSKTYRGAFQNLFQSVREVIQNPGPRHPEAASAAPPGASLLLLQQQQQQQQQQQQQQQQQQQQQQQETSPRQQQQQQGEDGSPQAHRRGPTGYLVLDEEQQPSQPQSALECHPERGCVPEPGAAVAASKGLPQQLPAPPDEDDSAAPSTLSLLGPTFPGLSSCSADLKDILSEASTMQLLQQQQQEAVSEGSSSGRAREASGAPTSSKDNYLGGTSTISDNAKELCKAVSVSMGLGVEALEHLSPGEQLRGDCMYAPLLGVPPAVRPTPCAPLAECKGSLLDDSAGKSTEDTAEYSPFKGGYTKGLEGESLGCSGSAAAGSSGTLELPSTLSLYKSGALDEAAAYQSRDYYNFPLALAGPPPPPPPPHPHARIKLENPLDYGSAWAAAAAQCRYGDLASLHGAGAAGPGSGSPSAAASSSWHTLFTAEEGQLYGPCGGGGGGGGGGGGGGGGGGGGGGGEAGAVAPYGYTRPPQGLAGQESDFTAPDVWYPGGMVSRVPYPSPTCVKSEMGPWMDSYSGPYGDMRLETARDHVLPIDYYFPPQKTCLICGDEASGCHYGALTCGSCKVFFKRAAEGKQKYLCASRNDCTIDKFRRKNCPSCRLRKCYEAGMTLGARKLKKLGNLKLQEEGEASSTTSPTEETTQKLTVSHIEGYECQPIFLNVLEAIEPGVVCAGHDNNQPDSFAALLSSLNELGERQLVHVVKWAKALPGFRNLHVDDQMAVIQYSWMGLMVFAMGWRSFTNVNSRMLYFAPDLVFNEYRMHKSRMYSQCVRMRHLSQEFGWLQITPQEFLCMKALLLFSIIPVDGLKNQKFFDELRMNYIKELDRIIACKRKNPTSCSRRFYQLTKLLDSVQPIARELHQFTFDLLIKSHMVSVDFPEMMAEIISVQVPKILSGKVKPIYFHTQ
- TEST_PROTOCOL: LNCaP-AR-wt ANT reporter assay (antagonist mode)
- Assay type: cell-based
- TEST_PARAMETERS: maximum % inhibition of R1881 control response over the tested concentration range; read-out: LNCaP-AR-wt ANT MAX % Inh
QUANTITY: Emax (%)

>>> reading("CN1CC(Oc2ccc(N3C(=S)N(c4cnc(C#N)c(C(F)(F)F)c4)C(=O)C34CCC4)cc2)C1 [Cpd 84]")
101
>>> reading("N#Cc1ncc(N2C(=O)C3(CCC3)N(c3ccc(O[C@@H]4CCN[C@@H](C(F)(F)F)C4)cc3)C2=S)cc1C(F)(F)F (racemic) [Cpd 106]")
102
>>> reading("N#Cc1ncc(N2C(=O)C3(CCC3)N(c3ccc(OC4CCNCC4)cc3)C2=S)cc1Cl [Cpd 44]")
98.8
>>> reading("C=CCN1CCC(Oc2ccc(N3C(=S)N(c4cnc(C#N)c(Cl)c4)C(=O)C34CCC4)cn2)CC1 [Cpd 89]")
101
